Source listed as ChEMBL document CHEMBL4261521.

# Tested on: Erythrocyte
# test.protocol: Anti-inflammatory activity in human RBC assessed as inhibition of hypotonic solution-induced hemolysis after 10 mins by spectrophotometric method
# Assay type: functional, cell-based
readout.type: IC50 (µg/mL)
Lab book: enter the figure in µg/mL, no units written.

Given item `COc1cc(/C=N\Nc2nc3cccc(C)c3s2)ccc1OCc1ccccc1` , the value recorded as its IC50 is 66.2

Given item `COc1cc(/C=N\Nc2nc3cccc(C)c3s2)cc(OC)c1OC` , the value recorded as its IC50 is 74.6

Given item `CC/C=N/Nc1nc2cccc(C)c2s1` , the value recorded as its IC50 is 78.5

Given item `Cc1cccc2nc(N/N=C\c3ccc([N+](=O)[O-])cc3[N+](=O)[O-])sc12` , the value recorded as its IC50 is 12.7

Given item `Cc1cccc2nc(N/N=C/c3cccs3)sc12` , the value recorded as its IC50 is 28.7

Given item `Cc1cccc2nc(N/N=C\c3cc(O)c(O)c(O)c3)sc12` , the value recorded as its IC50 is 68.6
